Would you kindly list %Inh for each of these compounds?
Tested on: RSK3(Kin.Dom.2-C-terminal);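 also: KINOMEscan kinase panel screen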
Construct: gene RPS6KA2
CONDITION: concentration: 1 μM,replicates: in singlicate; n = 1
Respond with the bare value in %.

Any idea what its %Inh is? The compound is O=C(NCC1CC1)c1ccc(-c2cc(C(=O)NC3CC3)ccc2F)cc1
0

Endpoint output: %Inh of COc1cc(Nc2nccc(N3CCC(NC(=O)c4cccc(C#N)c4)C3)n2)cc(OC)c1OC (stereo not drawn) . Value?
0

What value of %Inh has been recorded for this entry: CS(=O)(=O)Nc1ccc(-c2ccnc3[nH]ccc23)cc1
54

Field request: %Inh | item: CCn1c(-c2nonc2N)nc2cncc(Br)c21
6

Can you share its %Inh? I mean this compound: CS(=O)(=O)c1cccc(CNc2nc(Nc3ccc4c(c3)[C@@H]3C[C@@H]4CNC3=O)ncc2C(F)(F)F)c1
13

Name the reported %Inh value associated with the compound Cl.Cl.NC[C@H](CC1CCCCC1)NC(=O)c1ccc(-c2ccnc3[nH]ccc23)s1
21

// lookup %Inh for COc1cccc(CNC(=O)NC2CCN(c3ccnc(Nc4cc(OC)c(OC)c(OC)c4)n3)C2)c1 (stereo not drawn)
1

%Inh for C[C@@H](Oc1cc(-n2cnc3cc(-c4cnn(C)c4)ccc32)sc1C(N)=O)c1ccccc1Cl ?
0

Need %Inh of Cl.c1ccc(Oc2ccc(Nc3ccnc4cc(-c5ccc(CN6CCNCC6)o5)ccc34)cc2)nc1 , thanks.
9

Dear colleague, I am looking for the recorded %Inh of the following compound: FC(F)(F)c1cc(Br)cc(Nc2nccc(-c3cnn4ncccc34)n2)c1
9

Quick check: %Inh of OCCn1cc(-c2cnc3nnn(Cc4ccc5ncccc5c4)c3n2)cn1 ?
0

May I ask what %Inh has been recorded for CN(c1ccccc1CNc1nc(Nc2ccc3c(c2)CC(=O)N3)ncc1C(F)(F)F)S(C)(=O)=O ?
7
